test method notes: method code SF-AS, from DOI: 10.1016/0223-5234(89)90056-1
experimental setup: pH 7.4
property measured: logD

molecule=O=[N+]([O-])c1c[nH]c2nccnc12 property_measured=logD number=-0.23
molecule=Cn1cc([N+](=O)[O-])c2cccnc21 property_measured=logD number=0.49
molecule=CCOC(=O)Cn1cccc2c([N+](=O)[O-])cnc1-2 property_measured=logD number=-0.12
molecule=O=C(Cn1cc([N+](=O)[O-])c2cccnc21)NCCCN1CCOCC1 property_measured=logD number=-0.15
molecule="O=[N+]([O-])c1cn(CC(O)CO)c2ncccc12 (stereo not given)" property_measured=logD number=-0.28
molecule=COc1nc2c(c(=O)n(C)c(=O)n2C)n1C property_measured=logD number=-0.09
molecule=O=[N+]([O-])c1cn(CCBr)c2ncccc12 property_measured=logD number=1.95
molecule=O=C(Cn1cc([N+](=O)[O-])c2cccnc21)NCCO property_measured=logD number=-0.19
molecule=CCOC(=O)Cn1cc([N+](=O)[O-])c2cccnc21 property_measured=logD number=0.57
molecule=O=C(Cn1cccc2c([N+](=O)[O-])cnc1-2)NCCCN1CCOCC1 property_measured=logD number=-0.52
